system: 485176-168-R4-J1-PDC complex spheroid growth; experiment: Anticancer human tumor 485176-168-R4-J1-PDC patient-derived pancreatic adenocarcinoma cell line growth inhibition [RAS]; conditions: second compound 0.00949 µM; first compound 0.000949 µM; stronger effect = lower value
Quick reference: viability, T/C of the listed items.

molecule	viability, T/C / %
CCc1c2c(nc3ccc(O)cc13)-c1cc3c(c(=O)n1C2)COC(=O)[C@]3(O)CC + CCn1c(-c2cccnc2C(C)OC)c2c3cc(ccc31)N1CCOC(CC(NC(=O)C(C(C)C)N(C)C(=O)C3(F)CCN(C(=O)C#CC(C)(C)N(C)C)CC3)C(=O)N3CCCC(N3)C(=O)OCC(C)(C)C2)C1	89.5
CCc1c2c(nc3ccc(O)cc13)-c1cc3c(c(=O)n1C2)COC(=O)[C@]3(O)CC + CCn1c(-c2cc(N3CCN(C)CC3)cnc2C(C)OC)c2c3cc(ccc31)-c1csc(n1)CC(NC(=O)C1CC1C)C(=O)N1CCCC(N1)C(=O)OCC(C)(C)C2	81.2
CC1(C)CCC(Nc2ncc(C(F)(F)F)c(-c3c[nH]c4c(P(C)(C)=O)c(C#N)ccc34)n2)CN1 (centres undefined) + CCn1c(-c2cccnc2C(C)OC)c2c3cc(ccc31)N1CCOC(CC(NC(=O)C(C(C)C)N(C)C(=O)C3(F)CCN(C(=O)C#CC(C)(C)N(C)C)CC3)C(=O)N3CCCC(N3)C(=O)OCC(C)(C)C2)C1	97.6
CC1(C)CCC(Nc2ncc(C(F)(F)F)c(-c3c[nH]c4c(P(C)(C)=O)c(C#N)ccc34)n2)CN1 (centres undefined) + CCn1c(-c2cc(N3CCN(C)CC3)cnc2C(C)OC)c2c3cc(ccc31)-c1csc(n1)CC(NC(=O)C1CC1C)C(=O)N1CCCC(N1)C(=O)OCC(C)(C)C2	84.9

----------
test system: 485176-168-R4-J1-PDC complex spheroid growth; assay: Anticancer human tumor 485176-168-R4-J1-PDC cell line growth inhibition [RAS]; settings: second compound 0.0316 µM; first compound 0.01 µM; stronger effect = lower value;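 note: spheroids exposed to compounds for seven days before readout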;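 for viability, T/C: luminescence viability expressed relative to DMSO vehicle wells set as 100%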

molecule	u	viability, T/C
CCN1CCN(Cc2ccc(Nc3ncc(F)c(-c4cc(F)c5nc(C)n(C(C)C)c5c4)n3)nc2)CC1 + C=CC(=O)N1CCN(c2nc(OCC3CCCN3C)nc3c(F)c(-c4nc(N)cc(C)c4C(F)(F)F)c(Cl)cc23)C(C)C1	%	89.8
C=CC(=O)N1CCN(c2nc(OCC3CCCN3C)nc3c(F)c(-c4nc(N)cc(C)c4C(F)(F)F)c(Cl)cc23)C(C)C1 (stereo not given) + C#Cc1c(F)ccc2cc(O)cc(-c3ncc4c(N5CC6CCC(C5)N6)nc(OCC56CCCN5CC(F)C6)nc4c3F)c12	%	88.9
C=CC(=O)Nc1cc(Nc2nccc(-c3cn(C)c4ccccc34)n2)c(OC)cc1N(C)CCN(C)C + C#Cc1c(F)ccc2cc(O)cc(-c3ncc4c(N5CC6CCC(C5)N6)nc(OCC56CCCN5CC(F)C6)nc4c3F)c12	%	90.8
C=CC(=O)Nc1cc(Nc2nccc(-c3cn(C)c4ccccc34)n2)c(OC)cc1N(C)CCN(C)C + C=CC(=O)N1CCN(c2nc(OCC3CCCN3C)nc3c(F)c(-c4nc(N)cc(C)c4C(F)(F)F)c(Cl)cc23)C(C)C1	%	122
Nc1ccn(C2OC(CO)C(O)C2(F)F)c(=O)n1 (stereo not given) + C=CC(=O)N1CCN(c2nc(OCC3CCCN3C)nc3c(F)c(-c4nc(N)cc(C)c4C(F)(F)F)c(Cl)cc23)C(C)C1	%	86

----------
tested on: 485176-168-R4-J1-PDC complex spheroid growth; assay: Anticancer human tumor 485176-168-R4-J1-PDC cell line growth inhibition [RAS]; conditions: second compound 3.16 µM; first compound 0.01 µM; stronger effect = lower value;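 note: spheroids exposed to compounds for seven days before readout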;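 for viability, T/C: luminescence viability expressed relative to DMSO vehicle wells set as 100%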

compound	u	viability, T/C
O=C(c1ccc(F)c(F)c1Nc1ccc(I)cc1F)N1CC(O)([C@@H]2CCCCN2)C1 + C#Cc1c(F)ccc2cc(O)cc(-c3ncc4c(N5CC6CCC(C5)N6)nc(OCC56CCCN5CC(F)C6)nc4c3F)c12	%	86.4
C=CC(=O)N1CCN(c2nc(OCC3CCCN3C)nc3c(F)c(-c4nc(N)cc(C)c4C(F)(F)F)c(Cl)cc23)C(C)C1 (stereo unspecified) + C#Cc1c(F)ccc2cc(O)cc(-c3ncc4c(N5CC6CCC(C5)N6)nc(OCC56CCCN5CC(F)C6)nc4c3F)c12	%	92.2
C=CC(=O)Nc1cc(Nc2nccc(-c3cn(C)c4ccccc34)n2)c(OC)cc1N(C)CCN(C)C + C#Cc1c(F)ccc2cc(O)cc(-c3ncc4c(N5CC6CCC(C5)N6)nc(OCC56CCCN5CC(F)C6)nc4c3F)c12	%	89.5
Nc1ccn(C2OC(CO)C(O)C2(F)F)c(=O)n1 (stereo unspecified) + C#Cc1c(F)ccc2cc(O)cc(-c3ncc4c(N5CC6CCC(C5)N6)nc(OCC56CCCN5CC(F)C6)nc4c3F)c12	%	69.7
CC(C)n1nc(-c2ccc3oc(N)nc3c2)c2c(N)ncnc21 + C#Cc1c(F)ccc2cc(O)cc(-c3ncc4c(N5CC6CCC(C5)N6)nc(OCC56CCCN5CC(F)C6)nc4c3F)c12	%	80
CCN1CCN(Cc2ccc(Nc3ncc(F)c(-c4cc(F)c5nc(C)n(C(C)C)c5c4)n3)nc2)CC1 + C#Cc1c(F)ccc2cc(O)cc(-c3ncc4c(N5CC6CCC(C5)N6)nc(OCC56CCCN5CC(F)C6)nc4c3F)c12	%	92.8

----------
Quick reference: viability, T/C of the listed items.
Tested on: 485176-168-R4-J1-PDC complex spheroid growth
Test: Anticancer human tumor 485176-168-R4-J1-PDC cell line growth inhibition [RAS];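 note: spheroids exposed to compounds for seven days before readout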;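 for viability, T/C: luminescence viability expressed relative to DMSO vehicle wells set as 100%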
Details: second compound 0.000949 µM; first compound 0.000949 µM; stronger effect = lower value
Description: RAS pathway inhibitors in Combinations in Complex Spheroids A high-throughput screen of multi-cell type tumor spheroids was designed to identify active combinations of RAS pathway inhibitors and targeted small molecules. Complex spheroids include a stromal component modeled by human endothelial cells (HUVEC) and fibroblasts modeled by human mesenchymal stem cells (MSCs). […] Compounds. […] If the clinical Cmax for an agent had not been determined, the highest concentration tested was 10 microM. […]

compound	u	viability, T/C
CCc1c2c(nc3ccc(O)cc13)-c1cc3c(c(=O)n1C2)COC(=O)[C@]3(O)CC + CCn1c(-c2cc(N3CCN(C)CC3)cnc2C(C)OC)c2c3cc(ccc31)-c1csc(n1)CC(NC(=O)C1CC1C)C(=O)N1CCCC(N1)C(=O)OCC(C)(C)C2	%	104
CC1(C)CCC(Nc2ncc(C(F)(F)F)c(-c3c[nH]c4c(P(C)(C)=O)c(C#N)ccc34)n2)CN1 (centres undefined) + CCn1c(-c2cccnc2C(C)OC)c2c3cc(ccc31)N1CCOC(CC(NC(=O)C(C(C)C)N(C)C(=O)C3(F)CCN(C(=O)C#CC(C)(C)N(C)C)CC3)C(=O)N3CCCC(N3)C(=O)OCC(C)(C)C2)C1	%	91.9
CC1(C)CCC(Nc2ncc(C(F)(F)F)c(-c3c[nH]c4c(P(C)(C)=O)c(C#N)ccc34)n2)CN1 (centres undefined) + CCn1c(-c2cc(N3CCN(C)CC3)cnc2C(C)OC)c2c3cc(ccc31)-c1csc(n1)CC(NC(=O)C1CC1C)C(=O)N1CCCC(N1)C(=O)OCC(C)(C)C2	%	94.9
CCc1c2c(nc3ccc(O)cc13)-c1cc3c(c(=O)n1C2)COC(=O)[C@]3(O)CC + CCn1c(-c2cccnc2C(C)OC)c2c3cc(ccc31)N1CCOC(CC(NC(=O)C(C(C)C)N(C)C(=O)C3(F)CCN(C(=O)C#CC(C)(C)N(C)C)CC3)C(=O)N3CCCC(N3)C(=O)OCC(C)(C)C2)C1	%	89

----------
system: 485176-168-R4-J1-PDC complex spheroid growth; assay: Anticancer human tumor 485176-168-R4-J1-PDC cell line growth inhibition [RAS]; details: curve of first compound; second compound 0.00949 µM;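 note: spheroids exposed to compounds for seven days before readout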
attribute.measured: IC50 (µM)

compound	attribute.measured	rel	recorded.measurement
CC(Nc1ccc2c(c1)OCCn1cc(N3C(=O)OCC3C(F)F)nc1-2)C(N)=O (configuration not stated) + CCn1c(-c2cccnc2C(C)OC)c2c3cc(ccc31)N1CCOC(CC(NC(=O)C(C(C)C)N(C)C(=O)C3(F)CCN(C(=O)C#CC(C)(C)N(C)C)CC3)C(=O)N3CCCC(N3)C(=O)OCC(C)(C)C2)C1	IC50	=	9.14
CC(=O)OC12COC1CC(O)C1(C)C(=O)C(O)C3=C(C)C(OC(=O)C(O)C(NC(=O)OC(C)(C)C)c4ccccc4)CC(O)(C(OC(=O)c4ccccc4)C21)C3(C)C (configuration not stated) + CCn1c(-c2cc(N3CCN(C)CC3)cnc2C(C)OC)c2c3cc(ccc31)-c1csc(n1)CC(NC(=O)C1CC1C)C(=O)N1CCCC(N1)C(=O)OCC(C)(C)C2	IC50	<	0.0316
